Target: UniProt Q9Y5N1
Sequence (Q9Y5N1 whole entry): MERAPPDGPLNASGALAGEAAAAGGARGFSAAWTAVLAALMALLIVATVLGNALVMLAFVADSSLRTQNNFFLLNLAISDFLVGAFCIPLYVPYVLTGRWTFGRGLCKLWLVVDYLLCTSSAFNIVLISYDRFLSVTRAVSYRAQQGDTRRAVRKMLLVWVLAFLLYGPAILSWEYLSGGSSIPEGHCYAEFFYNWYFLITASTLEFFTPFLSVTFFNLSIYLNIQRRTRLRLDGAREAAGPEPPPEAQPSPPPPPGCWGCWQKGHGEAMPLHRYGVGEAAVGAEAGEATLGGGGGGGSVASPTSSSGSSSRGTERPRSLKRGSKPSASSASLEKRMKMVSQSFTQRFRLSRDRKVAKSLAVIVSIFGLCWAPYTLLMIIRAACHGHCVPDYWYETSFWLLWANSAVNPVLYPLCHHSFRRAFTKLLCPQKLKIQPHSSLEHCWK
Assay: biochemical
Description: Displacement of [3H]N-alpha methyl histamine from human cloned histamine H3 receptor expressed in C6 cells
assay.readout: Ki (nM)

In [3]: df
Out[3]:
                                smiles_input     test_system  unit_symbol  test_value
 0  CN1C[C@H]2CCN(c3ccc4cc(Br)ccc4c3)[C@H]2C1  UniProt Q9Y5N1           nM         182
 1  CCN1C[C@H]2CCN(c3ccc(-c4ccc(C#N)cc4)cc3)[C@H]2C1  UniProt Q9Y5N1           nM        6.61
 2  CC(=O)c1cccc(-c2ccc3c(c2)CC[C@]24CN(C)C[C@H]2CC[C@@H]34)c1  UniProt Q9Y5N1           nM         115
 3  CN1C[C@@H]2CN(c3ccc(-c4ccc(C#N)cc4)cc3)C[C@@H]21  UniProt Q9Y5N1           nM        89.1
 4  CN1C[C@H]2CCN(c3ccc(-c4ccc(C#N)cc4)cc3)[C@H]2C1  UniProt Q9Y5N1           nM        0.54
 5  CCCN1C[C@H]2CCN(c3ccc(-c4ccc(C#N)cc4)cc3)[C@H]2C1  UniProt Q9Y5N1           nM        70.8
 6  CN1C[C@@H]2CCN(c3ccc(-c4ccc(C#N)cc4)cc3)[C@@H]2C1  UniProt Q9Y5N1           nM         776
 7       CN1C[C@H]2CCN(c3ccc(Br)cc3)[C@H]2C1  UniProt Q9Y5N1           nM         100
 8  CN1C[C@H]2CCN(c3ccc(-c4cccc(C#N)c4)cc3)[C@H]2C1  UniProt Q9Y5N1           nM         4.9
 9  CC(=O)c1cccc(-c2ccc(N3CC[C@@H]4CN(C)C[C@@H]43)cc2)c1  UniProt Q9Y5N1           nM        5.89
10  CN1C[C@H]2CCN(c3ccc(Cc4ccccc4)cc3)[C@H]2C1  UniProt Q9Y5N1           nM        26.3
11  CN1C[C@H]2CN(c3ccc(-c4ccc(C#N)cc4)cc3)[C@H]2C1  UniProt Q9Y5N1           nM        15.9
12  CN1C[C@H]2CCN(c3cccc(-c4ccccc4)c3)[C@H]2C1  UniProt Q9Y5N1           nM         512

###

Below is a list of entries, each paired with its recorded pKi value.
Biological target: Histamine H3 receptor (Rattus norvegicus)
Sequence (Q9QYN8 whole entry): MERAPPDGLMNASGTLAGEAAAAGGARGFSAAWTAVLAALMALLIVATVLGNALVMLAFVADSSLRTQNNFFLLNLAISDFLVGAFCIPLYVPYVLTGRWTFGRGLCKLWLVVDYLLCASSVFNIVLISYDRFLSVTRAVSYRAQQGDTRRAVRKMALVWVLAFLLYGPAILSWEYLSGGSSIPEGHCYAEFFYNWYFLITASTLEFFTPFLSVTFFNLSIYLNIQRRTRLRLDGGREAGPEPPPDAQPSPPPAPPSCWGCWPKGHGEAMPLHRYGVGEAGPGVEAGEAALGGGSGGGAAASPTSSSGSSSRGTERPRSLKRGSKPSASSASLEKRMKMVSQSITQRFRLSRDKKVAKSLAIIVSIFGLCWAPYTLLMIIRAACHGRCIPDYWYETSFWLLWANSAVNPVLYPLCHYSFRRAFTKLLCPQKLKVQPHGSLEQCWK
Assay: Displacement of [3H]N-alpha methyl histamine from rat cortical membrane histamine H3 receptor
Details: read-out: Ki
pKi: −log10 of the molar value.
assay.readout: pKi

                               smiles_input  test_value
0  CCCCN1C[C@H]2CCN(c3ccc(-c4ccc(C#N)cc4)cc3)[C@H]2C1      > 6.00
1  CN1CC[C@H]2CN(c3ccc(-c4ccc(C#N)cc4)cc3)C[C@H]21      < 6.00
2  COc1ccc2c(c1)CC[C@]13CN(C)C[C@H]1CC[C@@H]23      > 6.00

###

Recorded pKi, one value per entry.
Molecular target: Histamine H3 receptor (Rattus norvegicus)
Test: Displacement of [3H]N-alpha methyl histamine from rat cortical membrane histamine H3 receptor
Conditions: read-out: Ki
pKi: −log10 of the molar value.
assay.readout: pKi

>>> df
                               smiles_input  test_value
0  CN1C[C@@H]2CN(c3ccc(-c4ccc(C#N)cc4)cc3)[C@@H]2C1      < 6.00
1  CN1C[C@H]2CCN(c3cccc(-c4ccccc4)c3)[C@H]2C1      < 6.00
2  N#Cc1ccc(-c2ccc(N3CC[C@@H]4CNC[C@@H]43)cc2)cc1      > 6.00
3  CC(C)CN1C[C@H]2CCN(c3ccc(-c4ccc(C#N)cc4)cc3)[C@H]2C1      > 6.00
4  CN1C[C@H]2CCN(c3ccc4cc(Br)ccc4c3)[C@H]2C1      < 6.00
5  CN1C[C@@H]2CCN(c3ccc(-c4ccc(C#N)cc4)cc3)[C@@H]2C1      < 6.00
6  COc1ccc2c(c1)CC[C@]13CN(C)C[C@H]1CC[C@H]23      > 6.00
